Recorded % released in acid stage for the following compounds
assay: Dissolution of formulations A-K: acid stage (0.1 N HCl two hours) then buffer stage; assay type: physicochemical; conditions: formulation K, after two hours
# number only, unit % dropped from output

Known % released in acid stage results, listed for orientation:
Compound	Property label	Unit name	Measured number
Cn1c(=O)c2c(ncn2C)n(C)c1=O [Caffeine, caffeine]	% released in acid stage	%	18
COc1ccccc1OCC(O)CO (stereo not shown) [Guaifenesin, guaifenesin]	% released in acid stage	%	17

Below: the item to evaluate.
// query % released in acid stage value for entry O=C(O)c1ccccc1 [Benzoic acid, benzoic acid]
7

Attribution: patent US11351121B2
